Experiment: Mean serum concentrations in neonatal piglets after intramuscular or oral administration
Type: in vivo
Conditions: pig, po, 50 mg/kg, 10 minutes
RECORDED_ENDPOINT: concentration at 10 min (ng/mL)
Kindly provide the numeric value in ng/mL only, without the unit symbol.

Given the compound C/C(=C\C(=O)OCCCC(=NO)c1ccccc1)C[C@@H]1OC[C@H](C[C@@H]2O[C@H]2[C@@H](C)[C@H](C)O)[C@@H](O)[C@H]1O [Example 1, 4-Hydroxyimino-4-phenylbutyl monate A] , what is its reported concentration at 10 min?
3000

* * *

Assay: in vivo
Conditions: mouse, sc, 50 mg/kg
RECORDED_ENDPOINT: concentration at 1 h (µg/mL)
Kindly provide the numeric value in µg/mL only, without the unit symbol.

Sample answers from the record:
>>> measurement("C/C(=C\\C(=O)OC1CCC(=NO)CC1)C[C@@H]1OC[C@H](C[C@@H]2O[C@H]2[C@@H](C)[C@H](C)O)[C@@H](O)[C@H]1O (stereo partly drawn) [Example 3, 4-Hydroxyiminocyclohexyl monate A]")
1.5
>>> measurement("C/C(=C\\C(=O)OCCCC(=NO)c1ccccc1)C[C@@H]1OC[C@H](C[C@@H]2O[C@H]2[C@@H](C)[C@H](C)O)[C@@H](O)[C@H]1O [Example 1, 4-Hydroxyimino-4-phenylbutyl monate A]")
0.28

Could you now look at the following compound, please?
Given the compound C/C(=C\C(=O)OCCCCCC=NN(C)C)C[C@@H]1OC[C@H](C[C@@H]2O[C@H]2[C@@H](C)[C@H](C)O)[C@@H](O)[C@H]1O [Example 6, 6-Dimethylhydrazonohexyl monate A] , what is its reported concentration at 1 h?
2.3

Source of measurements: patent US4362743A
